- EXPERIMENTAL TARGET: T1, natural Fel d1 (Indoor Biotech, #NA-FD1-2) (cat, UniProt P30438 23-92; P30440 18-109)
- T1 construct: Bought natural heterodimeric glycoprotein, chains linked by disulfide bonds; also called nFel d1; nFel d 1
- T1 sequence (P30438 other isoform, or with tags, fused parts or gaps, chain 1 of 2): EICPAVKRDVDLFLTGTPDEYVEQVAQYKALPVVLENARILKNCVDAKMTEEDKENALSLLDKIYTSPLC
- T1 sequence (P30440 18-109, chain 2 of 2): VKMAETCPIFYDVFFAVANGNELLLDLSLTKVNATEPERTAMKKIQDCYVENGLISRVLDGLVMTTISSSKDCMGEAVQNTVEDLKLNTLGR
- TEST DESCRIPTION: Octet BLI sandwich; nFel d1 pre-complexed with captured mAb-1 H4H1616N (competitor); self-competition value subtracted
Reported Response of mAb-2 Binding to nFel d1 pre-complexed with mAb-1 by item:
Only the number, expressed in nm, is required.

Some binders with known Response of mAb-2 Binding to nFel d1 pre-complexed with mAb-1 results, for comparison:
{"BINDER": "H4H2645P (antibody, human IgG4, V domains shown, human IgG4 Fc (H4H prefix)) VH: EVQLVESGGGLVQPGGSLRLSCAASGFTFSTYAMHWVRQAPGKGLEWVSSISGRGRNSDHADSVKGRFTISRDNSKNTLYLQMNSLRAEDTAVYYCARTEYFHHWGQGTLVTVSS VL: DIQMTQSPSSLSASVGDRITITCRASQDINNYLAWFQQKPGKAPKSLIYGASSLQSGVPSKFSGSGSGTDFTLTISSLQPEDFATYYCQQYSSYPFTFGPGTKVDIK", "MEASURED VALUE": -0.01}
{"BINDER": "H4H1616N (antibody, human IgG4, V domains shown, human IgG4 Fc (H4H prefix)) VH: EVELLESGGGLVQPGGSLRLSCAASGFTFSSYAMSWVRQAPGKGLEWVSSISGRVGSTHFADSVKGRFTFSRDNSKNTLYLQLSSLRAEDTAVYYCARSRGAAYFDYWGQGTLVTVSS VL: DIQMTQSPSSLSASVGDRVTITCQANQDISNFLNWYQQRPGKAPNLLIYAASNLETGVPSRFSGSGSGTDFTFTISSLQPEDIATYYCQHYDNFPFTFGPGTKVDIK", "MEASURED VALUE": 0}
{"BINDER": "H4H1232N (antibody, human IgG4, V domains shown, human IgG4 Fc (H4H prefix)) VH: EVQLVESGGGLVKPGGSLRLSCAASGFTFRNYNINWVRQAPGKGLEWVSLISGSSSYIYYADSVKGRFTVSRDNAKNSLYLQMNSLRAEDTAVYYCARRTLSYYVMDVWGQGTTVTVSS VL: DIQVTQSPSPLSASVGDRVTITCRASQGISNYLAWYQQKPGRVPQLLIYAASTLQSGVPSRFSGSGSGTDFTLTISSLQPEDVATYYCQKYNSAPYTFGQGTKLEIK", "MEASURED VALUE": 0.18}

Next item in the queue.
For record H4H2864P (antibody, human IgG4, V domains shown, human IgG4 Fc (H4H prefix)) VH: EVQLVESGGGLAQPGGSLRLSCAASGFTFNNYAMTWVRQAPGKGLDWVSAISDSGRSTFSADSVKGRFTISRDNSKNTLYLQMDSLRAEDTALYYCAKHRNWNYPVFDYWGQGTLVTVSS VL: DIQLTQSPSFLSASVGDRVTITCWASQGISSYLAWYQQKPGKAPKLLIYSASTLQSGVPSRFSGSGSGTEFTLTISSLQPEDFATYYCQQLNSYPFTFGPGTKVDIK the listed Response of mAb-2 Binding to nFel d1 pre-complexed with mAb-1 is -0.01
